Reported IC50 values follow for various molecules
System: influenza A/FM/1/47(H1N1)
Test: microbe, parasite or virus in culture
Assay type: cell-based, influenza A virus
Settings: Influenza A virus, H1N1, MDCK

Completed entries (count: 2):
**Query** So what IC50 did CC(=O)OCc1ccc(F)c(O[C@@H]2O[C@H](COC(C)=O)[C@@H](OC(C)=O)[C@H](OC(C)=O)[C@H]2OC(C)=O)c1 [Compound 13a] get with influenza A/FM/1/47(H1N1)?
**Result** > 130 µM

**Query** Request body: readout IC50, system influenza A/FM/1/47(H1N1), query COC(=O)c1ccc(O[C@@H]2O[C@H](COC(C)=O)[C@@H](OC(C)=O)[C@H](OC(C)=O)[C@H]2OC(C)=O)c(F)c1 [Compound 7a] . Return the value.
**Result** > 133 µM

Would you kindly look at the next entry?
**Query** What is its IC50 for influenza A/FM/1/47(H1N1)? Entry: COC(=O)c1c(F)cccc1O[C@@H]1O[C@H](COC(C)=O)[C@@H](OC(C)=O)[C@H](OC(C)=O)[C@H]1OC(C)=O [Compound 9a]
**Result** 34.5 µM

----------
Listing: IC50 of selected compounds
Test system: influenza B (B/Jifang/13/97)
Assay: Anti-influenza CPE assay in MDCK cells, oseltamivir-null B/Jifang/13/97
Assay type: cell-based
Settings: Influenza B virus, read-out: IC50 B/Jifang/13/97
Output spec: scalar in µM, unitless text.

**Query** Look up IC50 for this compound: `COC(=O)c1ccc(F)c(O[C@@H]2O[C@H](COC(C)=O)[C@@H](OC(C)=O)[C@H](OC(C)=O)[C@H]2OC(C)=O)c1`
**Result** 33

Others:
**Query** Name the reported IC50 value associated with the compound `COC(=O)c1c(OC)cc(O[C@@H]2O[C@H](COC(C)=O)[C@@H](OC(C)=O)[C@H](OC(C)=O)[C@H]2OC(C)=O)cc1OC`
**Result** 6.25

**Query** Returns the measured IC50 for the input compound. Input: NC(=O)c1ncn([C@@H]2O[C@H](CO)[C@@H](O)[C@H]2O)n1 [Ribavirin, reference compound]
**Result** 11.4

----------
Test system: MDCK cells
Test: Cytotoxicity assay in MDCK cells monitored by CPE
Conditions: 48 h, Table 1
assay endpoint: TC50

Known results for compounds:
**Query** What does the record list as TC50 for COC(=O)c1ccc(F)c(O)c1 [Compound 1, Methyl 4-fluoro-3-hydroxybenzoate] ?
**Result** >1175.50 µM

**Query** Entry `COC(=O)c1ccc(F)cc1O[C@@H]1O[C@H](COC(C)=O)[C@H](OC(C)=O)[C@H](OC(C)=O)[C@H]1OC(C)=O` has what TC50?
**Result** >399.66 µM

**Query** May I ask what TC50 has been recorded for `OCc1ccc(O[C@@H]2O[C@H](CO)[C@@H](O)[C@H](O)[C@H]2O)cc1` ?
**Result** >698.62 µM

---
**Query** Fill in the blank: the reported TC50 of OCc1ccc(F)c(O[C@@H]2O[C@H](CO)[C@@H](O)[C@H](O)[C@H]2O)c1 [Compound 14a] is ____.
**Result** >657.31 µM

----------
This section presents compounds with their documented pIC50 values.
Test system: influenza A/FM/1/47(H1N1)
Assay: microbe, parasite or virus in culture
Assay type: cell-based, influenza A virus
Conditions: Influenza A virus, H1N1, MDCK
Convention used: pIC50 is expressed as -log10 of the molar concentration.

**Query** Name the recorded pIC50 for COC(=O)c1ccc(F)c(O[C@@H]2O[C@H](COC(C)=O)[C@@H](OC(C)=O)[C@H](OC(C)=O)[C@H]2OC(C)=O)c1 [Compound 1a] .
**Result** 4.46

**Query** Entry NC(=O)c1ncn([C@@H]2O[C@H](CO)[C@@H](O)[C@H]2O)n1 [Ribavirin, reference compound] has what pIC50?
**Result** 4.87

**Query** Requested field: pIC50. Item: CC(=O)OC[C@H]1O[C@@H](Oc2ncccc2F)[C@H](OC(C)=O)[C@@H](OC(C)=O)[C@@H]1OC(C)=O [Compound 12a]
**Result** 4.60

**Query** Name the reported pIC50 value associated with the compound CC(=O)OC[C@H]1O[C@@H](Oc2ccncc2)[C@H](OC(C)=O)[C@@H](OC(C)=O)[C@@H]1OC(C)=O [Compound 11a]
**Result** 4.28

**Query** Tell me the measured pIC50 of COC(=O)c1c(OC)cc(O[C@@H]2O[C@H](COC(C)=O)[C@@H](OC(C)=O)[C@H](OC(C)=O)[C@H]2OC(C)=O)cc1OC [Compound 2a] , please.
**Result** 4.94

----------
Test system: influenza B (B/Jifang/13/97)
Test: Anti-influenza CPE assay in MDCK cells, oseltamivir-null B/Jifang/13/97
Assay type: cell-based
Settings: Influenza B virus, read-out: IC50 B/Jifang/13/97
pIC50: −log10 of the molar value.
assay endpoint: pIC50

Completed entries (count: 2):
**Query** Suppose we examine the compound CCOC(=O)C1=C[C@@H](OC(CC)CC)[C@H](NC(C)=O)[C@@H](N)C1 [Oseltamivir, reference compound] ; what pIC50 value has been reported?
**Result** < 4.00

**Query** // query pIC50 value for entry CC(=O)OC[C@H]1O[C@@H](Oc2cccc(F)c2C)[C@H](OC(C)=O)[C@@H](OC(C)=O)[C@H]1OC(C)=O [Compound 10b]
**Result** 4.40

---
**Query** Fill in the blank: the reported pIC50 of `COC(=O)c1c(F)cccc1O[C@@H]1O[C@H](COC(C)=O)[C@H](OC(C)=O)[C@H](OC(C)=O)[C@H]1OC(C)=O` is ____.
**Result** < 3.88

----------
Test system: influenza A/Hanfang/359/95(H3N2)
Assay: microbe, parasite or virus in culture
Assay type: cell-based, influenza A virus
Details: Influenza A virus, H3N2, MDCK
pIC50: −log10 of the molar value.
As shown below, each of these compounds has a reported pIC50 value.

**Query** Requested read-out: pIC50. Entry: COC(=O)c1cccc(O[C@@H]2O[C@H](COC(C)=O)[C@H](OC(C)=O)[C@H](OC(C)=O)[C@H]2OC(C)=O)c1 [Compound 6b]
**Result** < 3.86

**Query** Item CC(=O)OCc1ccc(F)c(O[C@@H]2O[C@H](COC(C)=O)[C@@H](OC(C)=O)[C@H](OC(C)=O)[C@H]2OC(C)=O)c1 [Compound 13a] has what recorded pIC50?
**Result** < 3.89

**Query** Bench note: what pIC50 did CC(=O)OC[C@H]1O[C@@H](Oc2cccc(F)c2C)[C@H](OC(C)=O)[C@@H](OC(C)=O)[C@@H]1OC(C)=O [Compound 10a] show?
**Result** < 3.84

**Query** # input compound: CC(=O)OC[C@H]1O[C@@H](Oc2cccc(F)c2C)[C@H](OC(C)=O)[C@@H](OC(C)=O)[C@H]1OC(C)=O [Compound 10b] ; wanted: its pIC50
**Result** 4.31

**Query** Can you share its pIC50? I mean this compound: COC(=O)c1ccc(O[C@@H]2O[C@H](COC(C)=O)[C@H](OC(C)=O)[C@H](OC(C)=O)[C@H]2OC(C)=O)c(F)c1 [Compound 7b]
**Result** < 3.88

// switching to the query compound
**Query** Param item = COC(=O)c1ccc(F)cc1O[C@@H]1O[C@H](COC(C)=O)[C@H](OC(C)=O)[C@H](OC(C)=O)[C@H]1OC(C)=O [Compound 8b] ; retrieve measured pIC50.
**Result** < 3.40

----------
The entries below come with measured melting point values attached.

**Query** What value of melting point has been reported for the following compound? CC(=O)OC[C@H]1O[C@@H](Oc2ncccc2F)[C@H](OC(C)=O)[C@@H](OC(C)=O)[C@@H]1OC(C)=O [Compound 12a]
**Result** 140 to 142 °C

**Query** Report melting point for COC(=O)c1c(OC)cc(O[C@@H]2O[C@H](COC(C)=O)[C@@H](OC(C)=O)[C@H](OC(C)=O)[C@H]2OC(C)=O)cc1OC [Compound 2a] please.
**Result** 121 to 123 °C

**Query** # melting point lookup, item COC(=O)c1ccc(O[C@@H]2O[C@H](COC(C)=O)[C@H](OC(C)=O)[C@H](OC(C)=O)[C@H]2OC(C)=O)c(F)c1 [Compound 7b]
**Result** 121 to 123 °C

**Query** State the recorded melting point for this entry: COC(=O)c1c(F)cccc1O[C@@H]1O[C@H](COC(C)=O)[C@@H](OC(C)=O)[C@H](OC(C)=O)[C@H]1OC(C)=O [Compound 9a]
**Result** 130 to 132 °C

**Query** Which melting point value belongs to COC(=O)c1c(F)cccc1O[C@@H]1O[C@H](COC(C)=O)[C@H](OC(C)=O)[C@H](OC(C)=O)[C@H]1OC(C)=O [Compound 9b] ?
**Result** 130 to 132 °C

**Query** Could you share which melting point value was measured for COC(=O)c1ccc(F)cc1O[C@@H]1O[C@H](COC(C)=O)[C@H](OC(C)=O)[C@H](OC(C)=O)[C@H]1OC(C)=O [Compound 8b] ?
**Result** 136 to 138 °C

New cases:
**Query** Quick check: melting point of COC(=O)c1ccc(O[C@@H]2O[C@H](COC(C)=O)[C@@H](OC(C)=O)[C@H](OC(C)=O)[C@H]2OC(C)=O)c(F)c1 [Compound 7a] ?
**Result** 121 to 123 °C

**Query** Dear colleague, I am looking for the recorded melting point of the following compound: CC(=O)OC[C@H]1O[C@@H](Oc2ccncc2)[C@H](OC(C)=O)[C@@H](OC(C)=O)[C@@H]1OC(C)=O [Compound 11a]
**Result** 132 to 134 °C

**Query** // query melting point value for entry COC(=O)c1cccc(O[C@@H]2O[C@H](COC(C)=O)[C@H](OC(C)=O)[C@H](OC(C)=O)[C@H]2OC(C)=O)c1 [Compound 6b]
**Result** 154 to 156 °C
